System: Panc 05.04 cells (pancreatic cancer cells; Q699H and K700E mutations in SF3B1)
measurementNotes: Cell viability assay (CellTiter-Glo, 72 hr), Panc 05.04 cells
Assay type: cell-based
conditionLabel: Panc 05.04 cells (mutant SF3B1); maximum achievable response in tested dose range, negative value = cellular lethality; read-out: Panc 05.04 (mt SF3B1 cells) Emax (%)
Mark Fulfilled for reported Emax of -80% or greater; mark Not fulfilled for anything smaller.

[[record]]
compoundstring = "C/C(=C\\C=C\\[C@@H](C)c1ccccn1)[C@H]1OC(=O)CCCCC[C@@H](OC(=O)N2CCN(C3CCCCCC3)CC2)/C=C/[C@@H]1C"
discretelabel = "Fulfilled"


Qu. # bool: Emax of "C/C(=C\C=C\[C@@H](C)c1ccccn1)[C@H]1OC(=O)CCCC[C@@](C)(O)[C@@H](OC(=O)N2CCN(C)CC2)/C=C/[C@@H]1C" >= -80%
Ans. Fulfilled

Qu. # bool: Emax of "CCN(CC)C(=O)OC[C@H](C)/C=C/C=C(\C)[C@H]1OC(=O)C[C@H](O)CC[C@@](C)(O)[C@@H](OC(C)=O)/C=C/[C@@H]1C" >= -80%
Ans. Not fulfilled

Qu. # bool: Emax of "C/C(=C\C=C\[C@@H](C)COC(=O)N1CCCC1)[C@H]1OC(=O)C[C@H](O)CC[C@@](C)(O)[C@@H](OC(=O)N2CCN(C3CCCCCC3)CC2)/C=C/[C@@H]1C" >= -80%
Ans. Not fulfilled

Qu. # bool: Emax of "C/C(=C\C=C\[C@@H](C)c1ccccn1)[C@H]1OC(=O)C[C@H](O)CC[C@@](C)(O)[C@@H](OC(=O)N2CCOCC2)/C=C/[C@@H]1C" >= -80%
Ans. Fulfilled

###

GI50 values by entry
Tested on: Panc 05.04 cells (pancreatic cancer cells; Q699H and K700E mutations in SF3B1)
measurementNotes: Cell viability assay (CellTiter-Glo, 72 hr), Panc 05.04 cells
Type: cell-based
conditionLabel: Panc 05.04 cells (mutant SF3B1); read-out: Panc 05.04 (mt SF3B1 cells), GI50
Give just the number in nM; leave the unit off.

# annotated cases, reported GI50 shown
[[record]]
compound = "C/C(=C\\C=C\\[C@@H](C)COC(=O)N1CCCC1)[C@H]1OC(=O)C[C@H](O)CC[C@@](C)(O)[C@@H](OC(=O)N2CCN(C)CC2)/C=C/[C@@H]1C"
valueobserved = 3.05

[[record]]
compound = "C/C(=C\\C=C\\[C@@H](C)COC(=O)N1CCCC1C(C)O)[C@H]1OC(=O)C[C@H](O)CC[C@@](C)(O)[C@@H](OC(=O)N2CCN(C)CC2)/C=C/[C@@H]1C (stereo partly drawn)"
valueobserved = 10.1


Data point: "C/C(=C\C=C\[C@@H](C)c1ccccn1)[C@H]1OC(=O)C[C@H](O)CC[C@@](C)(O)[C@@H](OC(=O)N2CCCN(C3CCCCCC3)CC2)/C=C/[C@@H]1C" ; GI50 = 104

Data point: "C/C(=C\C=C\[C@@H](C)COC(=O)N1CCC2(COC2)C1)[C@H]1OC(=O)C[C@H](O)CC[C@@](C)(O)[C@@H](OC(=O)N2CCN(C3CCCCCC3)CC2)/C=C/[C@@H]1C" ; GI50 = 7.98

Data point: "C/C(=C\C=C\[C@@H](C)CCC(=O)N1CCCC1)[C@H]1OC(=O)C[C@H](O)CC[C@@](C)(O)[C@@H](OC(=O)N2CCN(C)CC2)/C=C/[C@@H]1C" ; GI50 = 27.3

Data point: "C/C(=C\C=C\[C@@H](C)COC(=O)N1CCCC1)[C@H]1OC(=O)CCCCC[C@@H](NC(=O)N2CCN(C)CC2)/C=C/[C@@H]1C" ; GI50 = 19

Data point: "C/C(=C\C=C\[C@@H](C)COC(=O)N1CCCC1)[C@H]1OC(=O)C[C@@H](O)CC[C@@](C)(O)[C@@H](OC(=O)N2CCN(C)CC2)/C=C/[C@@H]1C" ; GI50 = 12.3

Data point: "C/C(=C\C=C\[C@@H](C)COC(=O)N1CCC[C@H]1C)[C@H]1OC(=O)C[C@H](O)CC[C@@](C)(O)[C@@H](OC(=O)N2CCN(C3CCCCCC3)CC2)/C=C/[C@@H]1C" ; GI50 = 2.52

Data point: CC(=O)O[C@H]1/C=C/[C@H](C)[C@@H](/C(C)=C/C=C/C(C)Cc2ccccn2)OC(=O)C[C@H](O)CC[C@@]1(C)O (stereo partly drawn) ; GI50 = 1670

Data point: C/C(=C\C=C\C(C)c1cccnn1)[C@H]1OC(=O)C[C@H](O)CC[C@@](C)(O)[C@@H](OC(=O)N2CCN(C3CCCCCC3)CC2)/C=C/[C@@H]1C (stereo partly drawn) ; GI50 = 22

Data point: "C/C(=C\C=C\[C@@H](C)COC(=O)N1[C@H](C)CC[C@H]1C)[C@H]1OC(=O)C[C@H](O)CC[C@@](C)(O)[C@@H](OC(=O)N2CCN(C3CCCCCC3)CC2)/C=C/[C@@H]1C" ; GI50 = 4.52

Data point: "C/C(=C\C=C\[C@@H](C)COC(=O)N1CCCC1)[C@H]1OC(=O)C[C@H](O)CC[C@@](C)(O)[C@@H](OC(=O)N2CCN(C3CCCCCC3)CC2)/C=C/[C@@H]1C" ; GI50 = 1.66

###

System: Panc 05.04 cells (pancreatic cancer cells; Q699H and K700E mutations in SF3B1)
measurementNotes: Cell viability assay (CellTiter-Glo, 72 hr), Panc 05.04 cells
Type: cell-based
conditionLabel: Panc 05.04 cells (mutant SF3B1); read-out: Panc 05.04 (mt SF3B1 cells), GI50
Param label: returns satisfied when GI50 < 0.04 µM, returns not satisfied otherwise, including exact equality.

[[record]]
compoundstring = "CCCN(C)C(=O)OC[C@H](C)/C=C/C=C(\\C)[C@H]1OC(=O)C[C@H](O)CC[C@@](C)(O)[C@@H](OC(C)=O)/C=C/[C@@H]1C"
discretelabel = "not satisfied"


Qu. Lab log: compare recorded GI50 with 0.04 µM; is it strictly lower for "COC(=O)CC[C@H](C)/C=C/C=C(\C)[C@H]1OC(=O)C[C@H](O)CC[C@@](C)(O)[C@@H](OC(=O)N2CCN(C3CCCCCC3)CC2)/C=C/[C@@H]1C" ?
Ans. not satisfied

Qu. Lab log: compare recorded GI50 with 0.04 µM; is it strictly lower for "C/C(=C\C=C\[C@@H](C)COC(=O)N1CC[C@@H](Oc2nnnn2-c2ccccc2)C1)[C@H]1OC(=O)CCCC[C@@](C)(O)[C@@H](OC(=O)N2CCN(C)CC2)/C=C/[C@@H]1C" ?
Ans. satisfied

Qu. Lab log: compare recorded GI50 with 0.04 µM; is it strictly lower for "C/C(=C\C=C\[C@@H](C)CNC(=O)N1CCC[C@H]1CO)[C@H]1OC(=O)C[C@H](O)CC[C@@](C)(O)[C@@H](OC(=O)N2CCN(C3CCCCCC3)CC2)/C=C/[C@@H]1C" ?
Ans. not satisfied

Qu. Lab log: compare recorded GI50 with 0.04 µM; is it strictly lower for "C/C(=C\C=C\[C@@H](C)COC(=O)N1CCCC1)[C@H]1OC(=O)CCCCC[C@@H](OC(=O)N(C)C)/C=C/[C@@H]1C" ?
Ans. not satisfied

Qu. Lab log: compare recorded GI50 with 0.04 µM; is it strictly lower for "C/C(=C\C=C\[C@@H](C)COC(=O)N1CCCC1)[C@H]1OC(=O)C[C@H](O)CC[C@](C)(O)[C@@H](OC(=O)N2CCN(C)CC2)/C=C/[C@@H]1C" ?
Ans. satisfied

###

System: Panc 05.04 cells (pancreatic cancer cells; Q699H and K700E mutations in SF3B1)
measurementNotes: Cell viability assay (CellTiter-Glo, 72 hr), Panc 05.04 cells
Type: cell-based
conditionLabel: Panc 05.04 cells (mutant SF3B1); maximum achievable response in tested dose range, negative value = cellular lethality; read-out: Panc 05.04 (mt SF3B1 cells) Emax (%)
Emax values by entry
Respond with a number, then the unit of measure.

# annotated cases, reported Emax shown
[[record]]
compound = "CC(=O)O[C@H]1/C=C/[C@H](C)[C@@H](/C(C)=C/C=C/[C@@H](C)COC(=O)N2CCC2)OC(=O)C[C@H](O)CC[C@@]1(C)O"
valueobserved = "-91.8%"

[[record]]
compound = "C/C(=C\\C=C\\[C@@H](C)COC(=O)N1CCC[C@H]1CO)[C@H]1OC(=O)CCCCC[C@@H](OC(=O)N2CCN(CC(F)(F)F)CC2)/C=C/[C@@H]1C"
valueobserved = "-85.6%"

[[record]]
compound = "C/C(=C\\C=C\\[C@@H](C)COC(=O)N1CC2CC2C1)[C@H]1OC(=O)C[C@H](O)CC[C@@](C)(O)[C@@H](OC(=O)N2CCN(C3CCCCCC3)CC2)/C=C/[C@@H]1C (stereo partly drawn)"
valueobserved = "-84.2%"


# next compound below
Data point: "C/C(=C\C=C\[C@@H](C)COC(=O)n1ccc2ccccc21)[C@H]1OC(=O)C[C@H](O)CC[C@@](C)(O)[C@@H](OC(=O)N2CCN(C)CC2)/C=C/[C@@H]1C" ; Emax = -92.8%
